Attribution: patent US11053204B2

Test system: waterhemp (common waterhemp, Amaranthus rudis)
Assay: Test C preemergence, plant response rating
Format: in vivo
Settings: Preemergence; 16 g ai/ha; scale 0 to 100
test_readout: Plant response rating, Waterhemp
Please give the numeric answer without any surrounding text.

Answered cases to consult:
> print(dat)
                           smiles.structure  measured.number
1  N#Cc1cccc(Oc2ncc(Cl)cn2)c1C(=O)OCCC(F)(F)F               85
2        CCCCC(=O)c1c(Br)cccc1Oc1ncc(Cl)cn1              100
3         CCCC(=O)c1c(Br)cccc1Oc1ncc(Cl)cn1               75

Could you tell me which Plant response rating, Waterhemp is on file for O=C(CCCC(F)(F)F)c1c(Br)cccc1Oc1ncc(Cl)cn1 ?
95

---

Listing of recorded Plant response rating, Galium by entry.
Test system: galium (catchweed bedstraw, Galium aparine)
Experiment: Test C preemergence, plant response rating
Type: in vivo
Conditions: 31 g ai/ha, scale 0 to 100
Please give the numeric answer without any surrounding text.

Answered cases to consult:
> print(dat)
                                   molecule                   test.readout  measured.number
1  O=C(OCCC(F)(F)F)c1c(Br)cccc1Oc1ncc(Br)cn1  Plant response rating, Galium               60
2    N#Cc1cccc(Oc2ncc(Cl)cn2)c1CCCCC(F)(F)F  Plant response rating, Galium               10
3        CCCCC(=O)c1c(Br)cccc1Oc1ncc(Cl)cn1  Plant response rating, Galium                0
4  O=C(CCC(F)(F)F)c1c(Cl)cccc1Oc1ncc(Cl)cn1  Plant response rating, Galium               60
5  O=C(CCCC(F)(F)F)c1c(Cl)cccc1Oc1ncc(Cl)cn1  Plant response rating, Galium               30

Could you tell me which Plant response rating, Galium is on file for N#Cc1cccc(Oc2ncc(Cl)cn2)c1COCCC(F)(F)F ?
5

What about N#Cc1cccc(Oc2ncc(Cl)cn2)c1C(=O)OCCC(F)(F)F ?
10

What about N#CC(CCCC(F)(F)F)c1ccccc1Oc1ncc(Cl)cn1 (centres unmarked) ?
50

---

Listing of recorded Plant response rating, Morningglory by entry.
System: morningglory (Ipomoea coccinea)
Experiment: Test C preemergence, plant response rating
Type: in vivo
Conditions: Preemergence; 62 g ai/ha; scale 0 to 100
Please give the numeric answer without any surrounding text.

Answered cases to consult:
> print(dat)
                                   compound                    target.system                         test.readout  measured.number
1  O=C(OCCC(F)(F)F)c1c(Br)cccc1Oc1ncc(Br)cn1  morningglory (Ipomoea coccinea)  Plant response rating, Morningglory               25
2  CCCCC(=O)c1c(Oc2ncc(Cl)cn2)cccc1C(F)(F)F  morningglory (Ipomoea coccinea)  Plant response rating, Morningglory               20
3  O=C(CCC(F)(F)F)c1c(Br)cccc1Oc1ncc(Cl)cn1  morningglory (Ipomoea coccinea)  Plant response rating, Morningglory               60
4  N#CC(CCCC(F)(F)F)c1ccccc1Oc1ncc(Cl)cn1 (centres unmarked)  morningglory (Ipomoea coccinea)  Plant response rating, Morningglory               10

Could you tell me which Plant response rating, Morningglory is on file for FC(F)(F)CCCc1c(Br)cccc1Oc1ncc(Cl)cn1 ?
5
